Tested on: isolated, pressured rat renal interlobular arteries
Experiment: Isolated vessel studies: vasoconstrictor response (vascular diameter) to cumulative doses of 20-HETE analogs
Format: cell-based
Settings: 10^−8 to 10^−6 M (up to 1 μM); indomethacin, baicalein, 17-ODYA present; diameter 2 to 3 minutes after addition
MEASUREMENT TYPE: effect on the diameter of renal interlobular arteries (vasoconstrictor/agonist activity)

Examples with answers:
[
  {
    "COMPOUND": "CCCCC[C@H](O)/C=C/C=C\\C/C=C\\C/C=C\\CCCC(=O)O [15(S)-HETE]",
    "ASSAY RESULT": "no significant effect"
  },
  {
    "COMPOUND": "CCCCC/C=C\\C[C@H](O)/C=C/C=C\\C/C=C\\CCCC(=O)O [12(S)-HETE]",
    "ASSAY RESULT": "no significant effect"
  },
  {
    "COMPOUND": "CCCCC/C=C\\C/C=C\\C=C\\[C@@H](O)C/C=C\\CCCC(=O)O [8(S)-HETE]",
    "ASSAY RESULT": "no significant effect"
  },
  {
    "COMPOUND": "CCCCC/C=C\\C/C=C\\C/C=C\\C=C\\[C@@H](O)CCCC(=O)O [5(S)-HETE]",
    "ASSAY RESULT": "no significant effect"
  }
]

Alright, here's another compound for you.
What measured effect on the diameter of renal interlobular arteries (vasoconstrictor/agonist activity) is associated with C[C@H](O)CCC/C=C\C/C=C\C/C=C\C/C=C\CCCC(=O)O [19(S)-HETE] on isolated, pressured rat renal interlobular arteries?
no significant effect
